Test system: influenza A virus A/Aichi/2/68 (H3N2)
Test: Cytopathic effect (CPE) assay H3N2 in MDCK cells
Assay type: cell-based, influenza A virus (A/Aichi/2/68 (H3N2)); MDCK cells
Settings: activity conc 5
List of CPE H3N2 reduction (%) values.
Unit % implied. Number only.

Sample answers from the record:
Given smiles | CPE H3N2 reduction (%)
O=C(NOCc1ccccc1)c1cc2ccccc2cn1 | −1.5
Cl.O=C(NO)c1cc(N2CCCCC2)ccn1 | −4.1
CN(Cc1ccccc1)c1ccnc(C(=O)N(O)Cc2ccccc2)c1 | 3.8
O=C(c1cc(-c2ccc(Cl)c(Cl)c2)ccn1)N(O)Cc1ccccc1 | 8.1
NC(=O)c1cccc(-c2ccnc(C(=O)N(O)Cc3ccccc3)c2)c1 | −2.7

Next up:
Query string: Entry O=C(c1ccc(N2CCCC2)cn1)N(Cc1ccccc1)OCc1ccccc1 has what CPE H3N2 reduction (%)?
Result string: −2.7

----------
Tested on: influenza A virus A/Aichi/2/68 (H3N2)
Assay: Cytopathic effect (CPE) assay H3N2 in MDCK cells
Type: cell-based, influenza A virus (A/Aichi/2/68 (H3N2)); MDCK cells
Details: activity conc 2
List of CPE H3N2 reduction (%) values.
Unit % implied. Number only.

Sample answers from the record:
Molecule | Observed result
CC(C)(C)OC(=O)N1C2C=C(c3ccnc(C(=O)N(O)Cc4ccccc4)c3)CC1CC2 (centres unmarked) | −5.3
O=C(c1cc(N2CCCCC2)ccn1)N(O)CCCc1ccccc1 | 7.7

Next up:
Query string: Entry O=C(c1cc2ccccc2cn1)N(O)CCCc1ccccc1 has what CPE H3N2 reduction (%)?
Result string: 4.4

----------
Tested on: influenza A virus A/Aichi/2/68 (H3N2)
Assay: Cytopathic effect (CPE) assay H3N2 in MDCK cells
Assay type: cell-based, influenza A virus (A/Aichi/2/68 (H3N2)); MDCK cells
Details: activity conc 5
List of CPE H3N2 reduction (%) values.
Unit % implied. Number only.

Given smiles | Unit annotation | CPE H3N2 reduction (%)
Cc1c(-c2c(F)ccc(Cl)c2F)sc2nc(N)[nH]c(=O)c12 | % | 1.5
O=C(c1ccc(N2CCCCC2)cn1)N(O)Cc1ccccc1 | % | −3.4
CC(C)(C)OC(=O)N1CCC=C(c2ccnc(C(=O)N(O)Cc3ccccc3)c2)C1 | % | 10.2
CN(C)S(=O)(=O)c1cccc(-c2ccnc(C(=O)N(O)Cc3ccccc3)c2)c1 | % | −1.8
Cc1c(-c2ccccc2)sc2nc(Nc3ccccc3)[nH]c(=O)c12 | % | 8.7

Query string: Entry Cc1c(-c2ccc(Cl)c(C(F)(F)F)c2)sc2nc(N)[nH]c(=O)c12 has what CPE H3N2 reduction (%)?
Result string: 1.9

Query string: Field entry: Cc1c(-c2ccccc2)sc2nc(N)[nH]c(=O)c12
Result string: 8.9

Query string: Field entry: CC(C)(C)OC(=O)N1CC=C(c2ccnc(C(=O)N(O)Cc3ccccc3)c2)CC1
Result string: 1.2

Query string: Field entry: O=C(c1cc(-c2cccc(CO)c2)ccn1)N(O)Cc1ccccc1
Result string: 7.7

Query string: Field entry: Cc1c(-c2cccc(C#N)c2)sc2nc(N)[nH]c(=O)c12
Result string: 14.5

----------
System: influenza A virus A/Aichi/2/68 (H3N2)
Experiment: Cytopathic effect (CPE) assay H3N2 in MDCK cells
Assay type: cell-based, influenza A virus (A/Aichi/2/68 (H3N2)); MDCK cells
Settings: activity conc 5
List of CPE H3N2 reduction (%) values.
Unit % implied. Number only.

Query string: Notebook entry, influenza A virus A/Aichi/2/68 (H3N2) assay: CPE H3N2 reduction (%) of O=C(c1cc(N2CCCCC2)cc[n+]1[O-])N(O)Cc1ccccc1 = ?
Result string: −1.83

Query string: Field entry: Cc1c(-c2ccccc2)sc2nc(NC3CCCCC3)[nH]c(=O)c12 [SAV-7640]
Result string: −3.2

Query string: Field entry: NC(=O)c1ccc(-c2ccnc(C(=O)N(O)Cc3ccccc3)c2)cc1
Result string: −2.5

----------
Tested on: influenza A virus A/Aichi/2/68 (H3N2)
Test: Cytopathic effect (CPE) assay H3N2 in MDCK cells
Assay type: cell-based, influenza A virus (A/Aichi/2/68 (H3N2)); MDCK cells
Settings: Influenza A virus, H3N2, MDCK; activity conc 50 (μM); read-out: CPE H3N2 reduction (%)
Measure: inhibition at 50 µM (%)
Unit % implied. Number only.

Sample answers from the record:
Given smiles | inhibition at 50 µM [%]
O=C(NO)c1cc(NS(=O)(=O)Cc2cccc(C(F)(F)F)c2)ccn1 | -5.8
O=C(NO)c1cc(NS(=O)(=O)Cc2ccc(Cl)cc2)ccn1 | -3.88
O=C(NO)c1cc(NS(=O)(=O)Cc2cccc(Br)c2)ccn1 | 2.29
O=C(NO)c1cc(NS(=O)(=O)Cc2ccccc2Cl)ccn1 | -1.5

Next up:
Query string: Entry O=C(NO)c1cc(NS(=O)(=O)Cc2cc(Cl)cc(Cl)c2)ccn1 has what inhibition at 50 µM?
Result string: 9.3

----------
Molecular target: PB2 cap binding domain (CBD) of an avian H5N1 influenza virus (Influenza A virus)
Sequence (Q9Q0V1 318-483 limits assumed): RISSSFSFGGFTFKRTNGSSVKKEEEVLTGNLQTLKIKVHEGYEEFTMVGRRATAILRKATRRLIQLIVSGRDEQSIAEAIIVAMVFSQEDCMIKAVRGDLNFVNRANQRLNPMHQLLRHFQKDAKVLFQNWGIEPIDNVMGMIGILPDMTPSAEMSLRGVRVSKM
Measure: log10(Kd) (log10 of the value in µM)
Transform log10 | Measure Kd | Unit µM

Sample answers from the record:
Given smiles | log10(Kd)
Cc1c(-c2ccccc2)sc2nc(NCCN(C)C)[nH]c(=O)c12 | 1.82
Cc1c(-c2cnn(C)c2)sc2nc(N)[nH]c(=O)c12 | 0.62
Cc1c(-c2cccc(F)c2)sc2nc(N)[nH]c(=O)c12 | 0.78
Cc1c(-c2ccccc2Cl)sc2nc(N)[nH]c(=O)c12 | 1.04

Next up:
Query string: Notebook entry, PB2 cap binding domain (CBD) of an avian H5N1 influenza virus (Influenza A virus) assay: log10(Kd) of Nc1nc2sc(-c3ccccc3)c(Br)c2c(=O)[nH]1 = ?
Result string: -0.07

----------
List of CPE H3N2 reduction (%) values.
Test system: influenza A virus A/Aichi/2/68 (H3N2)
Assay: Cytopathic effect (CPE) assay H3N2 in MDCK cells
Format: cell-based, influenza A virus (A/Aichi/2/68 (H3N2)); MDCK cells
Conditions: activity conc 2
Unit % implied. Number only.

Sample answers from the record:
Compound | Observed result
CC(C)c1cccc(-c2ccc(C(=O)N(O)CCc3ccccc3)nc2)c1 | 2.1
COC1=CC=C(c2ccnc(C(=O)N(O)Cc3ccccc3)c2)CC1 | −2.5
CC(C)c1cccc(-c2ccc(C(=O)NO)nc2)c1 | −2.1
Cc1c(-c2ccc(F)cc2F)sc2nc(N)[nH]c(=O)c12 [SAV-7610] | −1.6
O=C(c1cc(-c2ccc(Cl)cc2)ccn1)N(O)Cc1ccccc1 | −6.7

Query string: Entry CC(C)(C)OC(=O)N1C=C(c2ccnc(C(=O)N(O)Cc3ccccc3)c2)CCC1 has what CPE H3N2 reduction (%)?
Result string: 3.9

----------
System: influenza A virus A/Aichi/2/68 (H3N2)
Assay: Cytopathic effect (CPE) assay H3N2 in MDCK cells
Assay type: cell-based, influenza A virus (A/Aichi/2/68 (H3N2)); MDCK cells
Conditions: activity conc 5
Measure: CPE H3N2 reduction (%)
Unit % implied. Number only.

Sample answers from the record:
Given smiles | Unit annotation | Observed result
CNC(=O)c1cccc(-c2ccnc(C(=O)N(O)Cc3ccccc3)c2)c1 | % | −7.5
O=C(NO)c1cc(-c2ccc(Cl)cc2)ccn1 | % | 26.6
CN(c1ccnc(C(=O)NO)c1)S(=O)(=O)Cc1ccccc1 | % | −1.7

Query string: Entry O=C(c1cc2ccccc2cn1)N(Cc1ccccc1)OCc1ccccc1 has what CPE H3N2 reduction (%)?
Result string: 1.3
